pIC50: −log10 of the molar value.
What follows is a record of pIC50 for Coagulation factor IX (Homo sapiens, UniProt P00740).

Worked cases, answers included:
CC[C@@H](C)[C@@H](NS(=O)(=O)Cc1ccc(Cl)cc1)C(=O)N1C[C@@](C)(C#N)C[C@H]1C(=O)NCc1ccc2c(N)nccc2c1 = < 4.52
CC[C@@H](C)[C@@H](NC1CCCCC1)C(=O)N1C[C@@](C)(O)C[C@H]1C(=O)NCc1ccc2c(N)nccc2c1 = 5.11
CC[C@@H](C)[C@@H](NC1CCC(F)(F)CC1)C(=O)N1C[C@](O)(CC)C[C@H]1C(=O)NCc1ccc2c(N)nccc2c1 = < 4.52

QUERY: Any idea what pIC50 was measured for CC[C@@H](C)[C@@H](NC1CCCCC1)C(=O)N1C[C@@](C)(C#N)C[C@H]1C(=O)NCc1ccc2c(N)nccc2c1 ?
RESULT: < 5.00

QUERY: Any idea what pIC50 was measured for CC[C@@H](C)[C@@H](NS(=O)(=O)Cc1ccc(Cl)cc1)C(=O)N1C[C@@](C)(O)C[C@H]1C(=O)NCc1ccc2c(N)nccc2c1 ?
RESULT: < 4.70

QUERY: Any idea what pIC50 was measured for CC[C@@H](C)[C@@H](NC(C)C(F)F)C(=O)N1C[C@@](C)(O)C[C@H]1C(=O)NCc1ccc2c(N)nccc2c1 (stereo partly specified) ?
RESULT: < 5.00
